- assaySystem: human thrombin (Homo sapiens)
- Construct: human thrombin; purchased Sigma-Aldrich
- protocolText: Protease inhibitory assay, chromogenic substrate S-2238
- Type: biochemical
- assaySetup: Thrombin Ki determination; substrate 20 µM; cmpd conc 200 µM
attributeMeasured: V0 / Vi
Just the number, please, no unit after it.

Study these solved cases before continuing.
- NC(=O)N1CCC(C(=O)O)CC1: 1.08
- Nc1nnc(-c2cccs2)[nH]1: 1.11
- CC(=O)c1sc(-c2ccc(O)cc2)nc1C [SX-E1]: 1.09
- c1cnc2cccnc2c1: 1.14
- O=C(O)C1CCN(c2ncccn2)CC1: 1.35
- O=C(O)c1cnc(-c2ccccc2)s1: 1.08

Query: Dear colleague, I am looking for the recorded V0 / Vi of the following molecule: CC1CCc2sc(C(=O)O)cc2C1 (stereo not shown)
Response: 1.41
